# chromatographic logD listing for each entry below
TEST_METHOD_NOTES: Lipophilicity, logD of compound at pH 7.4 by chromatography
Format: physicochemical
MEASUREMENT_PARAMETERS: buffer
Hey, just send me the number, nothing else.

Which chromatographic logD is listed for COc1ncc(C(CC(=O)O)CN2CC(C(F)(F)CCc3ccc4c(n3)NCCC4)C2)cc1C (racemic) ?
2.7

And for O=C(O)CC(CN1CC(C(F)(F)CCc2ccc3c(n2)NCCC3)C1)c1cccc(OC2CC2)c1 (racemic) ?
3.5

And for COc1cc([C@H](CC(=O)O)CN2CC(C(F)(F)CCc3ccc4c(n3)NCCC4)C2)ccc1F ?
3.1

Continuing:
Which chromatographic logD is listed for COCCOc1cccc(C(CC(=O)O)CN2CC(OCc3ccc4c(n3)NCCC4)C2)c1 (racemic) ?
2

And for COCCOc1cccc([C@@H](CC(=O)O)CN2CC(C(F)(F)CCc3ccc4c(n3)NCCC4)C2)c1 ?
3

And for COCCOc1cccc([C@H](CC(=O)O)CN2CC(SCCc3ccc4c(n3)NCCC4)C2)c1 ?
2.4

And for O=C(O)CC(CN1CC(C(F)(F)CCc2ccc3c(n2)NCCC3)C1)c1cccc(C2CC2)c1 (racemic) ?
3.7

And for O=C(O)CC(CN1CC(C(F)(F)CCc2ccc3c(n2)NCCC3)C1)c1cccc(O[C@H]2CCOC2)c1 (mixture of isomers) ?
2.9

And for COCCOc1cccc([C@H](CC(=O)O)CN2CC[C@@](F)(CCc3ccc4c(n3)NCCC4)C2)c1 ?
2.9

And for COc1cc(C(CC(=O)O)CN2CC(C(F)(F)CCc3ccc4c(n3)NCCC4)C2)ccc1Cl (racemic) ?
3.6

And for COc1ccc(F)c(C(CC(=O)O)CN2CC(C(F)(F)CCc3ccc4c(n3)NCCC4)C2)c1 (racemic) ?
3.3

###

TEST_METHOD_NOTES: Volume of distribution at steady state in Wistar Han rat at 1 mg/kg, iv at 7 to 24 hrs by LC-MS/MS analysis
Type: ADME, organism-based
MEASUREMENT_PARAMETERS: in vivo, time 7-24 hrs, read-out: Vdss
MEASURED_METRIC: Vd (L/kg)
Just the number please, in L/kg, no unit attached.

// worked examples, Vd included
Which Vd is listed for COCCOc1cccc([C@H](CC(=O)O)CN2CC[C@@](F)(CCc3ccc4c(n3)NCCC4)C2)c1 ?
3.6

And for COc1cc([C@H](CC(=O)O)CN2CC(C(F)(F)CCc3ccc4c(n3)NCCC4)C2)ccc1F ?
4.6

--- query ---
Which Vd is listed for COc1ncc(C(CC(=O)O)CN2CC(C(F)(F)CCc3ccc4c(n3)NCCC4)C2)cc1C (racemic) ?
1.1

###

# Cmax listing for each entry below
TEST_METHOD_NOTES: Cmax in Wistar Han rat at 1 mg/kg, po at 7 to 24 hrs by LC-MS/MS analysis
Type: ADME, organism-based
MEASUREMENT_PARAMETERS: in vivo, time 7-24 hrs
State the value with its unit after it.

// worked examples, Cmax included
Which Cmax is listed for COCCOc1cccc([C@H](CC(=O)O)CN2CC(C(F)(F)CCc3ccc4c(n3)NCCC4)C2)c1 ?
20.4 ng/mL

And for COCCOc1cccc([C@H](CC(=O)O)CN2CC[C@@](F)(CCc3ccc4c(n3)NCCC4)C2)c1 ?
530 ng/mL

And for Cc1cc(C)n(-c2cccc(C(CC(=O)O)CN3CC(C(F)(F)CCc4ccc5c(n4)NCCC5)C3)c2)n1 (racemic) ?
12.4 ng/mL

Continuing:
Which Cmax is listed for COc1cc(C(CC(=O)O)CN2CC(C(F)(F)CCc3ccc4c(n3)NCCC4)C2)ccc1F (racemic) ?
313 ng/mL

And for COc1ncc(C(CC(=O)O)CN2CC(C(F)(F)CCc3ccc4c(n3)NCCC4)C2)cc1C (racemic) ?
496 ng/mL

And for COc1ccc(F)c(C(CC(=O)O)CN2CC(C(F)(F)CCc3ccc4c(n3)NCCC4)C2)c1 (racemic) ?
739 ng/mL

###

# log10 of MRT listing for each entry below
TEST_METHOD_NOTES: MRT in Wistar Han rat at 1 mg/kg, iv at 7 to 24 hrs by LC-MS/MS analysis
Format: ADME, organism-based
MEASUREMENT_PARAMETERS: in vivo, time 7-24 hrs
The common logarithm of MRT in h is what is listed.

Which log10 of MRT is listed for COCCOc1cccc([C@H](CC(=O)O)CN2CC[C@@](F)(CCc3ccc4c(n3)NCCC4)C2)c1 ?
0.48

And for COc1ncc(C(CC(=O)O)CN2CC(C(F)(F)CCc3ccc4c(n3)NCCC4)C2)cc1C (racemic) ?
0.46

And for COc1cc(C(CC(=O)O)CN2CC(C(F)(F)CCc3ccc4c(n3)NCCC4)C2)ccc1F (racemic) ?
0.58

And for Cc1cc(C)n(-c2cccc(C(CC(=O)O)CN3CC(C(F)(F)CCc4ccc5c(n4)NCCC5)C3)c2)n1 (racemic) ?
-0.70

And for COCCOc1cccc([C@H](CC(=O)O)CN2CC(C(F)(F)CCc3ccc4c(n3)NCCC4)C2)c1 ?
0.23

And for COc1ccc(F)c(C(CC(=O)O)CN2CC(C(F)(F)CCc3ccc4c(n3)NCCC4)C2)c1 (racemic) ?
0.62

--- query ---
Which log10 of MRT is listed for COc1cc([C@H](CC(=O)O)CN2CC(C(F)(F)CCc3ccc4c(n3)NCCC4)C2)ccc1F ?
0.49

###

TEST_METHOD_NOTES: in vitro
MEASUREMENT_PARAMETERS: PAMPA
Kindly return 1 (yes) if reported Papp is no lower than 20 ×10⁻⁶ cm/s; return 0 (no) if it is lower.

Reported Papp reaches at least 20 ×10⁻⁶ cm/s for O=C(O)CC(CN1CC(C(F)(F)CCc2ccc3c(n2)NCCC3)C1)c1ccnc(C2CC2)c1 (racemic) ?
0 (no)

And for O=C(O)CC(CN1CC(C(F)(F)CCc2ccc3c(n2)NCCC3)C1)c1ccc2c(c1)OCC2 (racemic) ?
0 (no)

And for COCCOc1cccc([C@@H](CC(=O)O)CN2CC(SCCc3ccc4c(n3)NCCC4)C2)c1 ?
0 (no)

And for O=C(O)CC(CN1CC(C(F)(F)CCc2ccc3c(n2)NCCC3)C1)c1cccc(OC2CC2)c1 (racemic) ?
1 (yes)

And for Cc1cc(C)n(-c2cccc([C@@H](CC(=O)O)CN3CC(CCCc4ccc5c(n4)NCCC5)C3)c2)n1 ?
0 (no)

And for COc1cc(C(CC(=O)O)CN2CC(C(F)(F)CCc3ccc4c(n3)NCCC4)C2)ccc1Cl (racemic) ?
1 (yes)

And for COc1cccc(C(CC(=O)O)CN2CC(C(F)(F)CCc3ccc4c(n3)NCCC4)C2)c1I (racemic) ?
0 (no)

And for O=C(O)CC(CN1CC(C(F)(F)CCc2ccc3c(n2)NCCC3)C1)c1cccc(N2CCOCC2)c1 (racemic) ?
0 (no)
